# assayExplanation: anti-His antibody binders, primary screen, artefact control for SMM control protein annotation, biochemical, small-molecule microarray, 635 nm fluorescence (AID 1128);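 note: score merges feature fluorescence with signal-to-noise for each printed compound spot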
# experimentalContext: anti-His Alexa647 antibody binding, higher = more signal
experimentalReadout: composite z-score
Output: the number by itself.

These recorded examples may help you get a feel for the data.
- compound: "O=C1O[C@@H](c2ccccc2)[C@@H](c2ccccc2)N2[C@@H](c3ccc(O)cc3)[C@]3(C(=O)Nc4ccc(C#CCCO)cc43)[C@@H](C(=O)Nc3nc4ccccc4s3)[C@H]12"
  measuredResult: 0.709
- compound: "C=CCC(OC(C)=O)[C@@H]1[C@@H](N(Cc2cc3ccccc3o2)C(=O)Cc2ccc(F)cc2)c2cc(OCCCO)ccc2N1C(=O)c1ccc2ccccc2n1 (some centres undefined)"
  measuredResult: 0.055
- compound: "CC(C)(C)N1CC=CC23O[C@@H]4C=CCOC(=O)[C@@H]4[C@H]2C(=O)N(CCCO)[C@@H]3C1=O (some centres undefined)"
  measuredResult: -1.08
- compound: "COc1ccc(NN2C(C(O)c3ccccn3)C=CC3C(=O)N(C4CCCCC4)C(=O)C32)cc1 (centres undefined)"
  measuredResult: 0.914
- compound: "CC1CC/C=C\\[C@H]2OC34C=CCN(C(C)C)C(=O)[C@H]3N(CCCCCO)C(=O)[C@@H]4C2C(=O)O1 (some centres undefined)"
  measuredResult: -1.07
- compound: "COC(=O)[C@@]1(Cc2ccccc2)[C@H]2c3cc(C(=O)N4CCCC4)[nH]c3C[C@H]2CN1C(=O)c1ccccc1"
  measuredResult: 0.886
- compound: "C=CCOC(=O)[C@H]1[C@@H]2C(=O)O[C@@H](c3ccccc3)[C@@H](c3ccccc3)N2[C@@H](c2ccc(OCCOC(=O)[C@H]3C[C@H]4C(=O)N[C@@H](Cc5ccccc5)C(=O)N4[C@H]3c3ccc(O)cc3)cc2)[C@]12C(=O)Nc1ccc(I)cc12"
  measuredResult: 0.951
- compound: "CN(C)CCCCNC(=O)[C@H]1C[C@H]2C(=O)N[C@@H](CCCCN(C)C)C(=O)N2[C@H]1c1cccc(OCCO)c1"
  measuredResult: 1.1
- compound: "CC(C)(C)OC(=O)CC[C@]1(C(=O)N2CCOCC2)N=C(c2ccc(OCCCO)cc2)O[C@H]1c1ccccc1"
  measuredResult: 1.9
- compound: "COCCCNC(=O)[C@@H]1c2ccccc2C(=O)N(Cc2ccccc2C(F)(F)F)[C@H]1c1ccc(CO)cc1"
  measuredResult: -0.175

Okay, next one:
composite z-score for CC(=O)n1cc(C(O)C2C=CC3C(=O)N(Cc4ccccc4)C(=O)C3N2n2cnnc2)c2ccccc21 (centres undefined) ? 0.483

###

# assayExplanation: small-molecule microarray binders of probe aNog, primary screen, biochemical, biotinylated probe, 635/667 nm fluorescence (AID 1115);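 note: probe is biotinylated aNog protein used at 0.15 µg/mL for 1 h at 4 C; z-score combines 667 nm fluorescence of each spot with its signal to noise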
# experimentalContext: higher = more signal
Label scheme, based on composite z-score: low (below -0.1), medium (-0.1 to below 0.6), high (0.6 or more)

- compound: "O=C(CS)NCCCCCCNC(=O)[C@@H]1C[C@@H]2C(=O)N3CCC[C@H]3C(=O)N2[C@@H]1c1cccc(OCCO)c1"
  className: "medium"
- compound: "CCCCN1CC=CC23O[C@@H]4C=CCOC(=O)[C@@H]4[C@H]2C(=O)N(C(C)CO)[C@@H]3C1=O (some centres undefined)"
  className: "medium"
- compound: "CO[C@H]1O[C@H](CO)[C@@H](OC(=O)Nc2ccccc2-c2ccccc2)[C@H](OC(=O)Nc2ccc3c(c2)OCO3)[C@@H]1OC(=O)Nc1ccc2c(c1)OCO2"
  className: "high"
- compound: "CC[C@H]1C2=C3C(CC[C@H]4C(OCc5ccc(F)cc5C(F)(F)F)OC[C@](C)([C@@H]34)N(C(=O)OC(C)(C)C)C2)C2COC(=O)OCC21 (some centres undefined)"
  className: "low"
- compound: "CCOC(=O)C1=C[C@@H](c2ccccc2)N(S(=O)(=O)c2ccc(C)cc2)[C@H]1c1cccc(Cl)c1"
  className: "medium"
- compound: "COc1cc2c(cc1OC)CN(C(=O)[C@H]1[C@@H]3C(=O)O[C@@H](c4ccccc4)[C@@H](c4ccccc4)N3[C@@H](c3ccc(OCCO)cc3)[C@]13C(=O)Nc1ccc(C#CC4(O)CCCCCC4)cc13)CC2"
  className: "high"

Tag the class for CC(C)OC(=O)CC(=O)CC(O)c1cccc(C#N)c1 (centres undefined) medium

Tag the class for `COC(=O)[C@]1(CCS(=O)(=O)c2ccccc2)N=C(c2ccc(OCCCO)cc2)O[C@@H]1c1ccccc1CN=[N+]=[N-]` high

Tag the class for `COCCCNC(=O)[C@@]1(Sc2ccc(C)cc2)CC(=O)N(C2Cc3ccccc3C2)[C@@H]1c1ccc(CO)cc1I` medium

Tag the class for `CCC[C@@H]1C[C@@]1(CCC)[C@@H](NP(=O)(c1ccccc1)c1ccccc1)c1ccc(Cl)cc1` low

Tag the class for `CCOC(=O)C[C@H]1[C@H](OC(=O)c2ccccc2-c2ccccc2)[C@@H](NC(=O)c2ccc3ccccc3n2)c2cc(OCCCO)ccc2N1C(=O)c1ccc2ccccc2n1` low

Tag the class for NC(=O)N1C(=O)C2C(C1=O)C1C=C(c3ccc(CO)cc3)C2C(C2CC2)N1Cc1sc2ccccc2c1Cl (centres undefined) medium

Tag the class for `C=CCOC(=O)[C@H]1[C@@H]2C(=O)O[C@@H](c3ccccc3)[C@@H](c3ccccc3)N2[C@@H](c2ccc(OCCOC(=O)[C@H]3C[C@H]4C(=O)N[C@@H](Cc5ccccc5)C(=O)N4[C@H]3c3cccc(OCCO)c3)cc2)[C@]12C(=O)Nc1ccc(I)cc12` low
